Value source: PubChem BioAssay (NCI)

test: NCI Yeast Anticancer Drug Screen. Data for the mlh1 rad18 strain (AID 175); conditions: S. cerevisiae mlh1 rad18 strain growth inhibition; at 50.0 µM
The panel holds about 79,000 compounds, 15% with a hit somewhere; the sample as a whole holds those more often. Active and inactive are the calls of the source. Cut-off read from the data, not from the text of the source: active = growth inhibition above about 70%; inactive = the rest.
Reply using exactly one outcome from active, inactive

Recorded test call requested for NC(=O)c1cccnc1
inactive

Now give it for OCC1NC(CO)C(O)C1O (stereo not drawn) too.
inactive

Could you do the same for CCCCCC(=O)NC1CCCCC1 , please?
inactive

Also Cc1nn(-c2ccccc2)nc1C(=O)Nc1ccc2[nH]ncc2c1 , if possible.
inactive

Same question, O=C(O)C1=NN(c2ccc(S(=O)(=O)O)cc2)C(=O)C1N=Nc1ccc(S(=O)(=O)O)cc1 (stereo not drawn) this time
inactive

----------
assay: NCI Yeast Anticancer Drug Screen. Data for the cln2 rad14 strain (AID 165);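 note: 0% = growth equal to vehicle treated cultures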; conditions: S. cerevisiae cln2 rad14 strain, at 50.0 µM, stronger effect = higher value
Compounds without any hit were thinned out: in the full panel of roughly 79,000, 15% have a hit.
Property Label: growth inhibition (%)
// return numeric value only (unit: %, not printed)

Before answering, review these 3 worked examples.
NC(=O)N=P(c1ccccc1)(c1ccccc1)c1ccccc1 : 7.75
Cc1c[n+]([O-])cc(C)c1N=Nc1ccc(N(C)C)cc1 : 11.1
CCN(CC)CCNc1c(C)cccc1Cl : -26.2

Given the compound O=C1OC(c2cccc(Cl)c2)=N/C1=C\c1ccccc1 , what is its reported growth inhibition?
14.8

Okay, and CCNC(=O)C1CCCN1C(=O)C(CCCN=C(N)N)NC(=O)C(CC(C)C)NC(=O)C(Cc1c[nH]c2ccccc12)NC(=O)C(Cc1ccc(O)cc1)NC(=O)C(CO)NC(=O)C(Cc1c[nH]c2ccccc12)NC(=O)C(Cc1cnc[nH]1)NC(=O)C1CCC(=O)N1 (configuration not stated) ?
-21.6

Repeat for the following compound: CC(=O)NCc1cc2c3c(c1)CCCN3CCC2
-32.5

Try this compound next: CC1CC=CCC1C1OCCO1 (configuration not stated)
10.2

Input COC(=O)C(Cc1nc2ccccc2[nH]c1=O)C(=O)C(=O)Nc1ccc([N+](=O)[O-])cc1[N+](=O)[O-] (configuration not stated)
0.2

Can you check Cc1ccc2nnc(C)n2c1 next?
19.2

// query: O=C1NC(=O)C(=O)N1
16.4

Please answer likewise for CCOC(=O)C(NC(=O)CC)(Nc1ccccc1OC)C(F)(F)F (configuration not stated)
-17.3

Now consider O=S1(=O)CCC(Br)c2ccccc2C1 (configuration not stated) and answer again.
14.2

What do you have for O=C(O)CCC(=O)Nc1cc(C(F)(F)F)ccc1Cl ?
25.1

Next up: O=C(O)/C(=N\O)c1cnnn1-c1ccccc1
3.35

----------
Attribute: growth inhibition
test: NCI Yeast Anticancer Drug Screen. Data for the rad50 strain (AID 155);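 note: 0% = growth of vehicle-only cultures of the same strain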; settings: S. cerevisiae rad50 strain growth inhibition; at 50.0 µM; stronger effect = higher value
This is part of a sample that, as a whole, favours compounds with a hit. Of some 79,000 tested, about 15% had one in any assay.
# output: bare number, implied unit %

Below, 5 molecules whose answers are already recorded.
O=C1/C(=C/c2ccc(O)c(O)c2)CC/C1=C\c1ccc(O)c(O)c1 : -18.9
Cc1n[n+](CC(=O)c2ccccc2)c2sc(N)nn12 : -55.8
C#CCNCCCn1c(=O)nc2n(-c3ccccc3)c3ccccc3nc-2c1=O : 56
CC(C)N(CC(=O)NC(=O)c1ccccc1)Cc1ccccc1 : 3.5
Oc1ccccc1/C=N/Nc1nc(N/N=C/c2ccccc2O)nc(N/N=C/c2ccccc2O)n1 : 25.3

# input molecule: CC(C)=CCNc1ncnc2c1ncn2CCC(=O)OC(C)(C)C ; wanted: its growth inhibition
-9.75

Please give the result for CCCCC/C(C)=C(\C#N)C(=O)OC too.
-5.4

Try CCOC(=O)NCC1(c2ccccc2)CCN(Cc2ccccc2)CC1 next.
-9.75

Moving on to NC(=O)C(F)(F)c1ccccc1
2.3

Can you handle CCOc1ccc(C(CC)c2cc3c(cc2OC)OCO3)cc1 (configuration not stated) next?
-1.95

Please do the same for CN(c1ccccc1)c1ccc([N+](=O)[O-])cc1[N+](=O)[O-] as well.
7.4

Thanks! And Cc1ccccc1NC(=O)c1ccc(C(=O)Nc2ccccc2C)cc1 ?
11

Now try CCn1c(=O)c(C(=O)O)c(Cl)c2cc3c(cc21)OCO3 .
10.3

Same lookup for N#C/C(=C\NC(=S)Nc1ccc(S(=O)(=O)Nc2nccs2)cc1)C(=O)c1ccc2ccccc2c1 , please.
7.7

One more molecule: O=C(CC(C(=O)c1cccs1)c1cccs1)c1ccccc1Cl (configuration not stated)
-10

// query: CC(=O)c1cc(C)oc1C
-5.1

Follow-up entry: COc1cc(NC(C)CNC(C)C)c2ncccc2c1 (configuration not stated)
-15.7

Next entry: C#CCOC(=O)c1ccc(OC(C)=O)cc1
-3.45

Same for O=C(O)CCC(=O)CCc1ccccc1C(=O)O
12.3

Now this one: [N-]=[N+]=CC(=O)c1cc(-c2ccccc2)nc2c(-c3ccccc3)cccc12
55.8

Similarly, CC1(c2ccc(Cl)cc2)NC(=O)N(CC(N)=O)C1=O (configuration not stated) ?
3.6

Note, next up: Cc1ccc(S(=O)(=O)CN2C(=O)C(c3ccccc3)(c3ccccc3)C23OC(c2ccc(Cl)cc2)=CC3=O)cc1 (configuration not stated)
-2.35
